// reported pIC50 per item
# assayed.system: human Nav1.8 (hNav1.8) ion channel (Homo sapiens)
# Construct: expressed in transfected cells
# Sequence (Q9Y5Y9 whole entry): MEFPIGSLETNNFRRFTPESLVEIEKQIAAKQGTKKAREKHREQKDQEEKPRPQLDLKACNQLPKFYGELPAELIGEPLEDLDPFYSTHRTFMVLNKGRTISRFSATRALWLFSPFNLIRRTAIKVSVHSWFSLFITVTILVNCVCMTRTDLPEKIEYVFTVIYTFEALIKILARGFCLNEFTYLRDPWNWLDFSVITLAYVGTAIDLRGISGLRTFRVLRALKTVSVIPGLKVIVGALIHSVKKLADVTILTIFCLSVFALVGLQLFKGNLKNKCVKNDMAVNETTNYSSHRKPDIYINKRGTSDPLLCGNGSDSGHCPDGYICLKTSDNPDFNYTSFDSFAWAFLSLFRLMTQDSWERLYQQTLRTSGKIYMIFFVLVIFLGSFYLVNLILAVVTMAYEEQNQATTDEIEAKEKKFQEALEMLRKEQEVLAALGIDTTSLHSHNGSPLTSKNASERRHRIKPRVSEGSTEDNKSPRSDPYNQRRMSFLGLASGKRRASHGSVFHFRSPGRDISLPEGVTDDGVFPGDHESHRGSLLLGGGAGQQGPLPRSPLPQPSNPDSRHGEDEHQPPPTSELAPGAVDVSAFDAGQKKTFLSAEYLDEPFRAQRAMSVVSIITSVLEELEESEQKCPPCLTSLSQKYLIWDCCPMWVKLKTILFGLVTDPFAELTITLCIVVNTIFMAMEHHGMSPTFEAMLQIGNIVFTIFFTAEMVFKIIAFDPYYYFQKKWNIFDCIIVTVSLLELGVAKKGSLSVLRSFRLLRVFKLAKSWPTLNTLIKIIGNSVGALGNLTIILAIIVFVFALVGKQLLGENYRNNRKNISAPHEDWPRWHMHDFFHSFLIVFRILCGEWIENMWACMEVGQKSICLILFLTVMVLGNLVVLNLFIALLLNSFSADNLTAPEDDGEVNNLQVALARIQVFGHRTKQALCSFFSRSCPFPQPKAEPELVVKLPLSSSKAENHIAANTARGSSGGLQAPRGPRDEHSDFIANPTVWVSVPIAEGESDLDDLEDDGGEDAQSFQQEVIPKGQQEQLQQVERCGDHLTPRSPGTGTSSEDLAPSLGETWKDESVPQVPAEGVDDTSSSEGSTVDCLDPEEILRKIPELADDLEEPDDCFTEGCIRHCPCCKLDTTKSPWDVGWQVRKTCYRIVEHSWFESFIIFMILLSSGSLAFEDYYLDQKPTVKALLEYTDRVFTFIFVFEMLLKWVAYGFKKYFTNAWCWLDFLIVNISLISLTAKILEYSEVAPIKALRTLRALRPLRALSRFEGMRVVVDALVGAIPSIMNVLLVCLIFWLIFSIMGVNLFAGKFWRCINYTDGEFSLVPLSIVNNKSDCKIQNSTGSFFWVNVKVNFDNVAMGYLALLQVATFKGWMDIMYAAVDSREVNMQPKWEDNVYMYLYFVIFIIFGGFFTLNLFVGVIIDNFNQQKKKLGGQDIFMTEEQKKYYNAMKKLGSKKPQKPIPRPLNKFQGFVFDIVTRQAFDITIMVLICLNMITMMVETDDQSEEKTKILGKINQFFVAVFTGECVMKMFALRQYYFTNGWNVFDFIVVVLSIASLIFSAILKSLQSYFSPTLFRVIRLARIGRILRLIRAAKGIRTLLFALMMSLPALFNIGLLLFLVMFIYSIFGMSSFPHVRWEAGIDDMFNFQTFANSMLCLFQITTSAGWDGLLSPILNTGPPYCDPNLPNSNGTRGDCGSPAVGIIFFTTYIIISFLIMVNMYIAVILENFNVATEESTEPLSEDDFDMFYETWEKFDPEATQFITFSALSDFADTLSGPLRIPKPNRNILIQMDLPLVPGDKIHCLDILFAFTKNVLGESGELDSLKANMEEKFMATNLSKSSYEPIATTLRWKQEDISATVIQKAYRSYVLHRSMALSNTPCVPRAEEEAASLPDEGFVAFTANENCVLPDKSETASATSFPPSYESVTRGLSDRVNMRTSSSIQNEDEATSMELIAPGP
# method.description: Inhibition of human Nav1.8 stably expressed in SH-SY-5Y cells (membrane potential dye fluorescence assay)
# Assay type: cell-based
# test.conditions: SH-SY-5Y hNav1.8 cells; FLIPR membrane potential dye; 10 μM pyrethroid, 250 nM TTX; test concentration range 100 μM-0.05 μM; read-out: hNav1.8 IC50
Where a name gives a salt, the structure may show the parent alone.
Worth noting: pIC50 values are minus log10 of concentrations stated in mol/L.

Previously resolved entries follow.
O=C(Nc1ccc(C(F)(F)F)cc1)N1CC2CC1CN2C1CCc2ccccc2C1 (stereo not shown) | 6.23
CC(c1ccccc1Cl)N1CC2CC1CN2C(=O)c1ccc(Oc2cccc(C#N)c2)cc1 (stereo not shown) [Example 173] | 5.71
O=C(Nc1ccc(Oc2ccc(F)cc2)cc1)N1CC2CC1CN2C1CCc2ccccc2C1 (stereo not shown) [Example 101, methanesulfonate salt] | 6.47

Data point: CC(c1ccc(Cl)cc1Cl)N1CC2CC1CN2C(=O)Nc1ccc(Oc2ccc(Cl)cc2)cc1 (stereo not shown) [Example 122] ; pIC50 = 4.72
